Overview of recorded IC50 for various compounds
- tested_on: MAP kinase p38 (Homo sapiens, UniProt O15264+Q15759+Q16539+P53778)
- assay_text: Compound was tested for inhibition of p38 MAP kinase
- Format: protein assay
Report the figure in µM without appending any unit label.

• CC(=O)Nc1nccc(-c2c(-c3ccc(F)cc3)ncn2CCCN2CCOCC2)n1 = 0.46
• CN(C)c1nccc(-c2c(-c3ccc(F)cc3)ncn2CCCN2CCOCC2)n1 = 3.6
• Cc1nccc(-c2c(-c3ccc(F)cc3)ncn2CCCN2CCOCC2)n1 = 1.3
• CSc1nccc(-c2c(-c3ccc(F)cc3)ncn2CCCN2CCOCC2)n1 = 2
• Cc1cc(-c2c(-c3ccc(F)cc3)ncn2CCCN2CCOCC2)ccn1 = 2.1

Please report the recorded IC50 for Oc1nccc(-c2c(-c3ccc(F)cc3)ncn2CCCN2CCOCC2)n1 . 5.5

Quick one: IC50 of CNc1nccc(-c2c(-c3ccc(F)cc3)ncn2CCCN2CCOCC2)n1 ? 1.9

Query (compound): CC(=O)Nc1cc(-c2c(-c3ccc(F)cc3)ncn2CCCN2CCOCC2)ncn1 ; field requested: IC50 3.5

# lookup: IC50 of C[S+]([O-])c1nccc(-c2c(-c3ccc(F)cc3)ncn2CCCN2CCOCC2)n1 (centres undefined) 2.2

====

- tested_on: CYP2D6 (Homo sapiens, UniProt P10635)
- Sequence (P10635 whole entry): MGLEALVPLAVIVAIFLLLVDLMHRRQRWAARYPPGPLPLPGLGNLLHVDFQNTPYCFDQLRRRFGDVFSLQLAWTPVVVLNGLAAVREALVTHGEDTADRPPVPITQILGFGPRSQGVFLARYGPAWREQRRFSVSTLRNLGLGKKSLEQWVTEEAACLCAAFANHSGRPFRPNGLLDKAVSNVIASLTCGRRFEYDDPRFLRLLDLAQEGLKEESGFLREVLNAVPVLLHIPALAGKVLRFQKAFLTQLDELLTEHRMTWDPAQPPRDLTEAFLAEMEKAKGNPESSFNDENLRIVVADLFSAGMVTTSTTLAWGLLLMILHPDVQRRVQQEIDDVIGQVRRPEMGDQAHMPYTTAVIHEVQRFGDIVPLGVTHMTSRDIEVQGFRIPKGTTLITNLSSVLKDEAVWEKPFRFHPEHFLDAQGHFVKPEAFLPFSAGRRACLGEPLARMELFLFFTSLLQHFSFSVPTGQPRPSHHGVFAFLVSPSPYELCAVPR
- assay_text: Percent inhibition of human hepatic cytochrome P450 2D6 at 10 uM
- Type: ADME
test_readout: inhibition at 10 µM (%)
The reply should contain only the number, in %.

Use the examples below as a reference point.
- COc1nccc(-c2c(-c3ccc(F)cc3)ncn2CCCN2CCOCC2)n1: 7
- Cc1cc(-c2c(-c3ccc(F)cc3)ncn2CCCN2CCOCC2)ccn1: 51

What measured inhibition at 10 µM goes with Cc1nccc(-c2c(-c3ccc(F)cc3)ncn2CCCN2CCOCC2)n1 ? 19

Need inhibition at 10 µM, item Nc1nccc(-c2c(-c3ccc(F)cc3)ncn2CCCN2CCOCC2)n1 47

For Fc1ccc(-c2ncn(CCCN3CCOCC3)c2-c2ccncc2)cc1 [SB-210313] , what is its reported inhibition at 10 µM? 86

====

Reported inhibition in vivo at 50 mg/kg by item:
- System: Mus musculus
- assay_text: Effective dose required to determine the oral activity in the mouse LPS-induced TNF alpha assay at a dose of 50 mg/kg
- Type: functional
Report the figure in % without appending any unit label.

Example compounds with recorded inhibition in vivo at 50 mg/kg:
• C[S+]([O-])c1nccc(-c2c(-c3ccc(F)cc3)ncn2CCCN2CCOCC2)n1 (stereo not given) = 37
• CC(=O)Nc1cc(-c2c(-c3ccc(F)cc3)ncn2CCCN2CCOCC2)ncn1 = 21
• Oc1nccc(-c2c(-c3ccc(F)cc3)ncn2CCCN2CCOCC2)n1 = 33
• CC(=O)Nc1nccc(-c2c(-c3ccc(F)cc3)ncn2CCCN2CCOCC2)n1 = 12

What does the data say about its inhibition in vivo at 50 mg/kg? Entry: Cc1cc(-c2c(-c3ccc(F)cc3)ncn2CCCN2CCOCC2)ccn1 37

====

- tested_on: CYP2D6 (Homo sapiens)
- assay_text: Percent inhibition of human hepatic cytochrome P450 2D6 at 10 uM
- Type: ADME
test_readout: inhibition at 10 µM (%)
Note: unit % is implicit; provide only the numeric part.

* CSc1nccc(-c2c(-c3ccc(F)cc3)ncn2CCCN2CCOCC2)n1 | 47

Which measured inhibition at 10 µM belongs to CNc1nccc(-c2c(-c3ccc(F)cc3)ncn2CCCN2CCOCC2)n1 , tested on CYP2D6 (Homo sapiens)? 11

Lab note: need inhibition at 10 µM with CYP2D6 (Homo sapiens) for entry Fc1ccc(-c2ncn(CCCN3CCOCC3)c2-c2ccncn2)cc1 , please look it up. 34

Every entry's value here was drawn from ChEMBL document CHEMBL1130658.
